# System: Lichtheimia corymbifera 272
# assay.details: Antifungal microdilution broth method, L. corymbifera
# Assay type: cell-based
# experimental.parameters: 24 h, read-out: MIC LC 24 h
# Procedure: The antifungal properties were evaluated against five yeast strains, namely: Candida albicans ATCC 44859, Candida tropicalis 156, Candida krusei […], Candida glabrata 20/I, Trichosporon […] 1188 and three strains of filamentous fungi: Aspergillus fumigatus 231, Lichtheimia corymbifera 272, and Trichophyton interdigitale 445. […] For the results to be valid, the difference in MIC determined from two parallel measurements must not be greater than one step on the dilution scale. […]
value.kind: MIC

# count of solved cases: 5
{"mol.smiles": "O=C(O)c1ccc(N=Cc2ccccc2O)cc1", "MIC": "> 500 µM"}
{"mol.smiles": "O=C(O)c1ccc(N=Cc2cc(I)cc(I)c2O)cc1", "MIC": "250 µM"}
{"mol.smiles": "O=C(O)c1ccc(N=Cc2cc(Cl)cc(I)c2O)cc1", "MIC": "250 µM"}
{"mol.smiles": "Nc1ccc(C(=O)O)cc1", "MIC": "> 500 µM"}
{"mol.smiles": "O=C(O)c1ccc(N=Cc2cc(O)ccc2O)cc1", "MIC": "> 500 µM"}

Moving on to the next compound.
Report MIC, nothing else, for this compound: COc1ccc(O)c(C=Nc2ccc(C(=O)O)cc2)c1 > 500 µM

====

Some compounds, each annotated with its measured MIC.
# System: Staphylococcus epidermidis H 6966/08
# assay.details: Antibacterial microdilution broth method, S. epidermidis
# Format: cell-based
# experimental.parameters: Staphylococcus epidermidis, H6966/08; S. epidermidis; 48 h incubation; read-out: MIC SE 48 h
Write the value in µM as a bare number.

Please report MIC for the following compound: O=C(O)c1ccc(N=Cc2cc(Cl)cc(Cl)c2O)cc1 250

Please report MIC for the following compound: O=C(O)c1ccc(N=Cc2cc(O)ccc2O)cc1 250

====

Form field: MIC (one value per entry).
# Test system: Mycobacterium tuberculosis H37Rv (331/88)
# assay.details: Antimycobacterial micromethod in Šula's medium, M. tuberculosis
# Type: cell-based
# experimental.parameters: 336 h, 14 days incubation at 37 °C, read-out: MIC Mtb. 331/88 14 d
Reply numerically in µM, unit not repeated.

Worked cases, MIC given:
{"compound": "O=C(O)c1ccc(N=Cc2cc(F)ccc2O)cc1", "experimental.target": "Mycobacterium tuberculosis H37Rv (331/88)", "MIC [µM]": 500}
{"compound": "O=C(O)c1ccc(N=Cc2cc([N+](=O)[O-])ccc2O)cc1", "experimental.target": "Mycobacterium tuberculosis H37Rv (331/88)", "MIC [µM]": 250}
{"compound": "O=C(O)c1ccc(N=Cc2c(O)cccc2Cl)cc1", "experimental.target": "Mycobacterium tuberculosis H37Rv (331/88)", "MIC [µM]": 250}
{"compound": "CC(C)(C)c1ccc(O)c(C=Nc2ccc(C(=O)O)cc2)c1", "experimental.target": "Mycobacterium tuberculosis H37Rv (331/88)", "MIC [µM]": 250}

Provide MIC, system Mycobacterium tuberculosis H37Rv (331/88), entry O=C(O)c1ccc(N=Cc2cc(I)ccc2O)cc1 250

Provide the reported MIC (system: Mycobacterium tuberculosis H37Rv (331/88)) for O=C(O)c1ccc(N=Cc2cc(Cl)cc(Cl)c2O)cc1 500

This collection of values is drawn from paper PMC7023430.
